# Target Or Test System: CDK2/Cyclin A2 (Homo sapiens) (UniProt P24941+P20248)
# Assay Remarks: Inhibition of CDK2/cyclinA (unknown origin) at 10 uM relative to control
# Type: protein-complex assay
Readout Kind: inhibition

Example entries begin here.
         structure_smiles_string  reported
0   Cc1n[nH]c2ccnc(OC3CCCCC3)c12       86%
1  Cc1n[nH]c2ccnc(Nc3ccccc3F)c12       79%
2   Cc1n[nH]c2ccnc(NC3CCCCC3)c12       86%

Now turn to the next compound.
Bench note: what inhibition did "Cc1n[nH]c2ccnc(Nc3ccc4ncsc4c3)c12" show?
78%
